Entry source: PubChem BioAssay (NCI)

- Tested on: EKVX NSCLC
- procedure-summary: NCI tumour cell line growth inhibition, 48 h; in the data active means GI50 below about 0.43 µM; inactive means the rest
API: response.call in 1.0 = active, 0.0 = inactive

compound: COc1ccccc1-[n+]1cc(-c2ccc(-c3ccccc3)cc2)n2c1CCCCC2
label-value: 1.0

Req: Recorded test outcome, item Cc1ccc(C(CN(C)C)C(=O)c2ccccc2)cc1 (stereo not given)
Resp: 0.0

Req: Now give it for C=C1C(=O)O[C@H]2[C@H]1CC/C(COC(=O)/C=C/C(=O)OC/C1=C/CC[C@@]3(C)O[C@H]3[C@H]3OC(=O)C(=C)[C@@H]3CC1)=C\CC[C@@]1(C)O[C@@H]21 too.
Resp: 0.0

Req: Now give it for C=C1C(=O)O[C@H]2[C@H]1CC/C(COC(=O)NCc1cc3ccccc3[nH]1)=C\CC[C@@]1(C)O[C@@H]21 too.
Resp: 0.0

Req: Now give it for NC(=O)c1cnc(N[C@@H]2CCCC[C@@H]2N)nc1Nc1cccc(-n2nccn2)c1 too.
Resp: 0.0

====

- System: UO-31 renal
- procedure-summary: NCI tumour cell line growth inhibition, 48 h
Each entry below carries its reported TGI.
Reply numerically in µM, unit not repeated.

item-smiles: COc1cc(Nc2nc3cc(N)cc(N)c3nc2-c2ccccc2)cc(OC)c1
TGI [µM]: 45

Now turn to the next molecule.
Req: Recorded TGI of O=c1cccc(C#CC#C[C@H]2O[C@@H]2CO)o1 , please.
Resp: 6.29

====

Each entry below carries its reported TGI.
- Tested on: M14 melanoma
- procedure-summary: NCI tumour cell line growth inhibition, 48 h

item-smiles: CCCCCCCCCCC/C(=N/O)c1ccc(O)c2ncccc12
measured-on: M14 melanoma
TGI: 4.8 µM
//
item-smiles: O=C1/C(=C/c2cccs2)N=C(c2ccccc2)N1c1nc2ccccc2s1
measured-on: M14 melanoma
TGI: > 100 µM
//
item-smiles: CN(c1ccc(Cl)cc1)S(=O)(=O)c1ccccc1
measured-on: M14 melanoma
TGI: > 100 µM

Req: Recorded TGI of CCOc1ccc(N=Cc2cccc3cccnc23)cc1 , please.
Resp: > 100 µM

Req: Now give it for O=C(/C=C/c1ccc(OCC(=O)N2CCN(c3ccccc3)CC2)cc1)c1ccc(Cl)cc1 too.
Resp: > 100 µM

Req: Now give it for OC1(C(O)(c2ccc(-c3ccccc3)cc2)c2ccc(-c3ccccc3)cc2)CCCCC1 too.
Resp: > 100 µM

Req: Now give it for Cn1c(=O)[nH]n(-c2ccc3ccccc3c2)c1=O too.
Resp: > 100 µM

Req: Now give it for CC(=O)Nc1ccc(/C=C/[N+](=O)[O-])cc1 too.
Resp: 7.01 µM

Req: Now give it for COC(=O)NC(Nc1ccc(C)cc1)(C(F)(F)F)C(F)(F)F too.
Resp: > 100 µM

Req: Now give it for CCOC(=O)/C(C1=N[C@H](C(=O)OCC)CS1)=C(\O)c1ccccc1 too.
Resp: > 100 µM

====

- Tested on: 786-0 renal
- procedure-summary: NCI tumour cell line growth inhibition, 48 h
readout-label: GI50

Some solved cases for reference:
molecule: Cc1ccc(C(CN(C)C)C(=O)c2ccccc2)cc1 (stereo not drawn)
GI50: 2.12 µM
//
molecule: COc1cc(Nc2nc3cc(N)cc(N)c3nc2-c2ccccc2)cc(OC)c1
GI50: 17.7 µM
//
molecule: Nc1ccccc1C#C/C=C\C#Cc1ccccc1C(F)(F)F
GI50: 0.545 µM
//
molecule: CC(C)(C)N1CCC1C(N)=O (stereo not drawn)
GI50: > 100 µM
//
molecule: CCN(Cc1cccc(OC)c1)c1ccc(CO)c(Cl)c1
GI50: 12.4 µM
//
molecule: O=C(/C=C/c1cccnc1)NCCCCC1CCN(C(=O)c2ccccc2)CC1
GI50: > 100 µM

Req: Recorded GI50 of NC(=O)c1cnc(N[C@@H]2CCCC[C@@H]2N)nc1Nc1cccc(-n2nccn2)c1 , please.
Resp: 5.57 µM

Req: Now give it for COP(=O)(OC)C(NC(c1ccccc1)c1ccccc1)c1ccc2c(c1)OCO2 (stereo not drawn) too.
Resp: 29.5 µM
